The origin of these recorded values is patent US8129163B2.

- Tested on: RMA
- condition.set: carbonyl compound 1.5 mM, NADH 0.25 mM, pH 6.5, 30° C.; acetophenone = 100%
# Relative activity (%) (reducing activity) >= 60% gives MET, anything below gives NOT MET

Input: Hi team, for CCCCCCCCC(=O)C(=O)OC [Methyl 2-oxodecanate] , is the recorded Relative activity (%) (reducing activity) at or above 60%?
Output: NOT MET

Input: Hi team, for CC(=O)c1ccccc1 , is the recorded Relative activity (%) (reducing activity) at or above 60%?
Output: MET

Input: Hi team, for CCCCCC=O , is the recorded Relative activity (%) (reducing activity) at or above 60%?
Output: MET

Input: Hi team, for CCOC(=O)C(Cl)C(C)=O (stereo not drawn) [Ethyl 2-chloroacetoacetate] , is the recorded Relative activity (%) (reducing activity) at or above 60%?
Output: NOT MET

Input: Hi team, for CC(=O)CCc1ccccc1 , is the recorded Relative activity (%) (reducing activity) at or above 60%?
Output: NOT MET

Input: Hi team, for CC(=O)c1ccco1 , is the recorded Relative activity (%) (reducing activity) at or above 60%?
Output: NOT MET

Input: Hi team, for CC(=O)c1ccccn1 , is the recorded Relative activity (%) (reducing activity) at or above 60%?
Output: MET

Input: Hi team, for O=Cc1ccncc1 , is the recorded Relative activity (%) (reducing activity) at or above 60%?
Output: NOT MET

Input: Hi team, for CCCCCCC(C)=O , is the recorded Relative activity (%) (reducing activity) at or above 60%?
Output: MET

Input: Hi team, for CC(=O)CC(=O)Nc1cc(Cl)ccc1Cl [2′,5′-Dichloro acetoacetanilide] , is the recorded Relative activity (%) (reducing activity) at or above 60%?
Output: NOT MET

Input: Hi team, for CC(=O)CC(=O)OC(C)(C)C [tert-Butylacetoacetate] , is the recorded Relative activity (%) (reducing activity) at or above 60%?
Output: MET

Input: Hi team, for COc1ccccc1C(C)=O , is the recorded Relative activity (%) (reducing activity) at or above 60%?
Output: NOT MET

Input: Hi team, for CC(=O)c1ccncc1 , is the recorded Relative activity (%) (reducing activity) at or above 60%?
Output: MET

Input: Hi team, for O=Cc1ccccc1[N+](=O)[O-] , is the recorded Relative activity (%) (reducing activity) at or above 60%?
Output: NOT MET

Input: Hi team, for CC(C)=O , is the recorded Relative activity (%) (reducing activity) at or above 60%?
Output: NOT MET

Input: Hi team, for CC(=O)c1cccnc1 , is the recorded Relative activity (%) (reducing activity) at or above 60%?
Output: NOT MET

Input: Hi team, for CCOC(=O)CC(=O)CN=[N+]=[N-] [Ethyl 4-azideacetoacetate] , is the recorded Relative activity (%) (reducing activity) at or above 60%?
Output: NOT MET

Input: Hi team, for CCOC(=O)CC(=O)CCl [Ethyl 4-chloroacetoacetate] , is the recorded Relative activity (%) (reducing activity) at or above 60%?
Output: NOT MET

Input: Hi team, for CC(=O)c1ccc(F)cc1 , is the recorded Relative activity (%) (reducing activity) at or above 60%?
Output: MET

Input: Hi team, for CCOC(=O)C(C)=O [Ethyl pyruvate] , is the recorded Relative activity (%) (reducing activity) at or above 60%?
Output: MET

Input: Hi team, for CCC=O , is the recorded Relative activity (%) (reducing activity) at or above 60%?
Output: NOT MET

Input: Hi team, for O=CCCCC=O , is the recorded Relative activity (%) (reducing activity) at or above 60%?
Output: NOT MET

Input: Hi team, for CCCC(=O)CC(=O)OCC [Ethyl 3-oxohexanate] , is the recorded Relative activity (%) (reducing activity) at or above 60%?
Output: NOT MET

Input: Hi team, for CCCCCC(C)=O , is the recorded Relative activity (%) (reducing activity) at or above 60%?
Output: MET

Input: Hi team, for COc1cccc(C(C)=O)c1 , is the recorded Relative activity (%) (reducing activity) at or above 60%?
Output: MET

Input: Hi team, for CCCCCCCCOC(=O)CC(=O)CCl [n-Octyl 4-chloroacetoacetate] , is the recorded Relative activity (%) (reducing activity) at or above 60%?
Output: NOT MET

Input: Hi team, for CC(=O)CC(N)=O [Acetoacetamide] , is the recorded Relative activity (%) (reducing activity) at or above 60%?
Output: NOT MET

Input: Hi team, for O=CCCc1ccccc1 , is the recorded Relative activity (%) (reducing activity) at or above 60%?
Output: MET

Input: Hi team, for CCCC=O , is the recorded Relative activity (%) (reducing activity) at or above 60%?
Output: MET

Input: Hi team, for CCC(C)=O , is the recorded Relative activity (%) (reducing activity) at or above 60%?
Output: NOT MET

Input: Hi team, for CC(=O)c1ccccc1Cl , is the recorded Relative activity (%) (reducing activity) at or above 60%?
Output: NOT MET

Input: Hi team, for COC(=O)CC(=O)CCl [Methyl 4-chloroacetoacetate] , is the recorded Relative activity (%) (reducing activity) at or above 60%?
Output: NOT MET

Input: Hi team, for CC(=O)CC(C)C , is the recorded Relative activity (%) (reducing activity) at or above 60%?
Output: MET

Input: Hi team, for CC(=O)C(C)=O , is the recorded Relative activity (%) (reducing activity) at or above 60%?
Output: NOT MET

Input: Hi team, for CC(C=O)c1ccccc1 (stereo not drawn) , is the recorded Relative activity (%) (reducing activity) at or above 60%?
Output: NOT MET

Input: Hi team, for CC(=O)c1cccc([N+](=O)[O-])c1 , is the recorded Relative activity (%) (reducing activity) at or above 60%?
Output: MET

Input: Hi team, for CC(=O)c1cnccn1 , is the recorded Relative activity (%) (reducing activity) at or above 60%?
Output: MET

Input: Hi team, for CC(=O)CC(C)=O , is the recorded Relative activity (%) (reducing activity) at or above 60%?
Output: NOT MET

Input: Hi team, for O=Cc1ccccc1 , is the recorded Relative activity (%) (reducing activity) at or above 60%?
Output: NOT MET

Input: Hi team, for CC(=O)CC(=O)Nc1ccccc1 [Acetoacetoanilide] , is the recorded Relative activity (%) (reducing activity) at or above 60%?
Output: NOT MET

Input: Hi team, for O=C1CCCC1 , is the recorded Relative activity (%) (reducing activity) at or above 60%?
Output: NOT MET

Input: Hi team, for CCCC(C)=O , is the recorded Relative activity (%) (reducing activity) at or above 60%?
Output: MET

Input: Hi team, for O=Cc1cccc([N+](=O)[O-])c1 , is the recorded Relative activity (%) (reducing activity) at or above 60%?
Output: NOT MET

Input: Hi team, for CC(=O)CC(=O)Nc1ccc(C)cc1 , is the recorded Relative activity (%) (reducing activity) at or above 60%?
Output: NOT MET

Input: Hi team, for CC(=O)c1ccccc1O [o-Hydroxyacetophenone] , is the recorded Relative activity (%) (reducing activity) at or above 60%?
Output: NOT MET

Input: Hi team, for CC(=O)c1ccc(C)cc1 , is the recorded Relative activity (%) (reducing activity) at or above 60%?
Output: MET

Input: Hi team, for CC(=O)c1cc2ccoc2cn1 [5-Acetylfuro[2.3-c]pyridine] , is the recorded Relative activity (%) (reducing activity) at or above 60%?
Output: MET

Input: Hi team, for CC(=O)C(C)C , is the recorded Relative activity (%) (reducing activity) at or above 60%?
Output: NOT MET

----------
Exercise: state measured Relative activity (%) of RMA after treatment with inhibitor for each of the molecules provided.
- System: RMA
- Type: biochemical, Candida maltosa IFO 1977 strain
- condition.set: inhibitor 1 mM, 30° C. for 30 minutes; untreated RMA = 100%
Response body: numeric value in %, unit text excluded.

Input: Looking for the measured Relative activity (%) of RMA after treatment with inhibitor of CCN1C(=O)C=CC1=O [N-Ethylmaleimide] , can you help?
Output: 94.7

Input: Looking for the measured Relative activity (%) of RMA after treatment with inhibitor of O=S(=O)([O-])[O-].[Cu+2] [CuSO4, copper sulfate] , can you help?
Output: 28.5

Input: Looking for the measured Relative activity (%) of RMA after treatment with inhibitor of O=S(=O)([O-])[O-].[Zn+2] [ZnSO4, zinc sulfate] , can you help?
Output: 23.1

Input: Looking for the measured Relative activity (%) of RMA after treatment with inhibitor of O[C@H](CS)[C@H](O)CS (racemic) , can you help?
Output: 92.2

Input: Looking for the measured Relative activity (%) of RMA after treatment with inhibitor of [Cl][Hg][Cl] [HgCl2, mercury chloride] , can you help?
Output: 0.0

Input: Looking for the measured Relative activity (%) of RMA after treatment with inhibitor of O=S(=O)(F)Cc1ccccc1 [Phenylmethanesulfonyl fluoride] , can you help?
Output: 96.0
